System: 653999-131-R-J2-PDC complex spheroids, growth inhibition;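 also: spheroids exposed to the agents for seven days before the readout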
assay.notes: Anticancer human tumor 653999-131-R-J2-PDC patient-derived lung adenocarcinoma cell line growth inhibition [RAS]
stated.conditions: second compound 0.0316 µM; first compound 0.00316 µM; active compounds read low
Provide the recorded viability, T/C for the entries that follow.

Need viability, T/C for each of these compounds.
1. CCN1CCN(Cc2ccc(Nc3ncc(F)c(-c4cc(F)c5nc(C)n(C(C)C)c5c4)n3)nc2)CC1 + C=CC(=O)N1CCN(c2nc(OCC3CCCN3C)nc3c(F)c(-c4nc(N)cc(C)c4C(F)(F)F)c(Cl)cc23)C(C)C1
2. C=CC(=O)N1CCN(c2nc(OCC3CCCN3C)nc3c(F)c(-c4nc(N)cc(C)c4C(F)(F)F)c(Cl)cc23)C(C)C1 (stereo unspecified) + C#Cc1c(F)ccc2cc(O)cc(-c3ncc4c(N5CC6CCC(C5)N6)nc(OCC56CCCN5CC(F)C6)nc4c3F)c12
3. C=CC(=O)Nc1cc(Nc2nccc(-c3cn(C)c4ccccc34)n2)c(OC)cc1N(C)CCN(C)C + C=CC(=O)N1CCN(c2nc(OCC3CCCN3C)nc3c(F)c(-c4nc(N)cc(C)c4C(F)(F)F)c(Cl)cc23)C(C)C1

Output:
["106%", "117%", "113%"]

Need viability, T/C for each of these compounds.
1. CC(C)n1nc(-c2ccc3oc(N)nc3c2)c2c(N)ncnc21 + C#Cc1c(F)ccc2cc(O)cc(-c3ncc4c(N5CC6CCC(C5)N6)nc(OCC56CCCN5CC(F)C6)nc4c3F)c12
2. CC(C)n1nc(-c2ccc3oc(N)nc3c2)c2c(N)ncnc21 + C=CC(=O)N1CCN(c2nc(OCC3CCCN3C)nc3c(F)c(-c4nc(N)cc(C)c4C(F)(F)F)c(Cl)cc23)C(C)C1
3. Nc1ccn(C2OC(CO)C(O)C2(F)F)c(=O)n1 (stereo unspecified) + C=CC(=O)N1CCN(c2nc(OCC3CCCN3C)nc3c(F)c(-c4nc(N)cc(C)c4C(F)(F)F)c(Cl)cc23)C(C)C1
4. Nc1ccn(C2OC(CO)C(O)C2(F)F)c(=O)n1 (stereo unspecified) + C#Cc1c(F)ccc2cc(O)cc(-c3ncc4c(N5CC6CCC(C5)N6)nc(OCC56CCCN5CC(F)C6)nc4c3F)c12
5. O=C(c1ccc(F)c(F)c1Nc1ccc(I)cc1F)N1CC(O)([C@@H]2CCCCN2)C1 + C=CC(=O)N1CCN(c2nc(OCC3CCCN3C)nc3c(F)c(-c4nc(N)cc(C)c4C(F)(F)F)c(Cl)cc23)C(C)C1
6. CCN1CCN(Cc2ccc(Nc3ncc(F)c(-c4cc(F)c5nc(C)n(C(C)C)c5c4)n3)nc2)CC1 + C#Cc1c(F)ccc2cc(O)cc(-c3ncc4c(N5CC6CCC(C5)N6)nc(OCC56CCCN5CC(F)C6)nc4c3F)c12
7. O=C(c1ccc(F)c(F)c1Nc1ccc(I)cc1F)N1CC(O)([C@@H]2CCCCN2)C1 + C#Cc1c(F)ccc2cc(O)cc(-c3ncc4c(N5CC6CCC(C5)N6)nc(OCC56CCCN5CC(F)C6)nc4c3F)c12
8. C=CC(=O)Nc1cc(Nc2nccc(-c3cn(C)c4ccccc34)n2)c(OC)cc1N(C)CCN(C)C + C#Cc1c(F)ccc2cc(O)cc(-c3ncc4c(N5CC6CCC(C5)N6)nc(OCC56CCCN5CC(F)C6)nc4c3F)c12

Output:
74.1%
71.8%
80.3%
98.5%
105%
74.8%
88.1%
96.1%
